# System: SNB-19
# experimentSummary: NCI tumour cell line growth inhibition, 48 h
Active and inactive are the calls of the source. Cut-off read from the data, not from the text of the source: active = GI50 up to about 1.1 µM and inactive = higher.
measurementName: GI50

Illustrative cases are given below, each with its answer.
>>> testvalue("C=C(C)[C@@H]1CC[C@]2(C)CC[C@]3(C)[C@H](CC[C@@H]4[C@@]5(C)CC[C@H](OC(=O)c6ccccc6)C(C)(C)[C@@H]5CC[C@]43C)[C@@H]12")
"> 100 µM (inactive)"
>>> testvalue("COc1cc(/C=c2/c3ccccc3n3c2cc(-c2ccccc2)[n+]3C)cc(OC)c1OC")
"5.48 µM (inactive)"
>>> testvalue("N#Cc1ccc(/C=[N+](/C=c2ccc(=C=[N-])cc2)N(CCO)C2=NCCN2)cc1")
"> 100 µM (inactive)"
>>> testvalue("COc1cc(C=O)c(-c2cc3c(cc2C2(C)OCCS2)OCO3)c(OC)c1OC (centres undefined)")
"30.2 µM (inactive)"

For each of the molecules below, state GI50.
1. O=C(/C=C1/Nc2ccc([N+](=O)[O-])cc2NC1O)c1cccc([N+](=O)[O-])c1 (centres undefined)
2. COCOc1cc(OCOC)cc(C(=O)Oc2ccccc2)c1

**Result**
1. > 100 µM (inactive)
2. > 100 µM (inactive)

* * *

Hi there, I'd appreciate the recorded GI50 for every entry that follows.
# Test system: DU-145
# experimentSummary: NCI tumour cell line growth inhibition, 48 h
Activity calls are given as the source filed them. Cut-off read from the data, not from the text of the source: active = GI50 up to about 1.1 µM and inactive = higher.

Illustrative cases are given below, each with its answer.
>>> testvalue("O=C(c1ccccc1)N1C(=S)NC(=N/c2ccccc2)/C1=N\\c1ccccc1")
"> 100 µM (inactive)"
>>> testvalue("Cc1ccc([S+]([O-])c2cccs2)cc1 (stereo not drawn)")
"> 100 µM (inactive)"
>>> testvalue("COC(=O)C1CCOC(C)N1C(=O)OC(C)(C)C (stereo not drawn)")
"> 100 µM (inactive)"
>>> testvalue("COC(=O)C(CBr)CBr")
"16.6 µM (inactive)"
>>> testvalue("C=CCOC(OCC=C)/C(Br)=C/C")
"55.2 µM (inactive)"

For each of the compounds below, state GI50.
1. C=C1C(=O)OC2CC(C)C3CC(O)OC(OCC)C3(C)CC12 (stereo not drawn)
2. CC[C@]12C=CCN3CCC4(c5cc(/N=N/c6ccc([N+](=O)[O-])cc6)c(OC)cc5N(C)[C@H]4[C@@](O)(C(=O)OC)[C@@H]1OC(C)=O)[C@@H]32 (stereo partly drawn)
3. CN(CCCNC(=O)c1cn(C)c2c1ccc1ccccc12)CCCNC(=O)c1cn(C)c2c1ccc1ccccc12
4. COC(CN(C)C(=O)C(C)NC(=O)c1ccccc1)OC (stereo not drawn)
5. CC(=O)c1[nH]c(NC(C)C)c(C(=S)Nc2ccccc2)c1N
6. Cn1cc(-c2ccc(CCOC3CCCCO3)cc2)c2c(C#N)cccc21 (stereo not drawn)

**Result**
1. 33.6 µM (inactive)
2. 22.8 µM (inactive)
3. 1.55 µM (inactive)
4. > 100 µM (inactive)
5. 26.7 µM (inactive)
6. > 100 µM (inactive)

For each of the compounds below, state GI50.
1. Cc1ccc(S(=O)(=O)NC(=O)NCC(N)=O)cc1
2. CC(=O)OC/C=C/Cn1nc(Br)c(=O)[nH]c1=O

**Result**
1: > 100 µM (inactive); 2: > 100 µM (inactive)

* * *

# Tested on: COLO 205
# experimentSummary: NCI tumour cell line growth inhibition, 48 h
Activity calls are given as the source filed them. No stated cut-off is given here; in the data, active = GI50 up to about 1.1 µM and inactive = higher.
Result category, one only: true (1) for active, false (0) for inactive

Some entries whose results are on file:
>>> category("COC1=CC(=O)c2c(cc(COP(N)(=O)N(CCBr)CCBr)n2C)C1=O (centres undefined)")
"true (1)"
>>> category("Cn1c(=O)c(C(=O)NC(=O)NCCCCCOC(=O)CCCCCCCCCCC(=O)OCCCCCNC(=O)NC(=O)c2cn(Cc3ccccc3)c(=O)n(C)c2=O)cn(Cc2ccccc2)c1=O")
"false (0)"

**Query** What outcome does the record of this test show for "COc1cc2c(c(OC)c1OC)-c1ccc(SC)c(=O)cc1[C@@H](NC(=O)c1cccc([N+](=O)[O-])c1)CC2" ?
**Result** true (1)

**Query** What outcome does the record of this test show for O=C(/C=C1/Nc2ccc([N+](=O)[O-])cc2NC1O)c1cccc([N+](=O)[O-])c1 (centres undefined) ?
**Result** false (0)

**Query** What outcome does the record of this test show for "CSc1nc(-c2ccccc2)c2c(n1)-c1ccccc1CC2" ?
**Result** false (0)

**Query** What outcome does the record of this test show for "CC1=NN(C(=O)c2ccc(Cl)cc2)C(=O)/C1=C/c1c(O)cc(O)c2ccccc12" ?
**Result** false (0)

**Query** What outcome does the record of this test show for CC1CN=C(N(C(=O)Nc2ccc(F)c(Cl)c2)c2ccccc2)S1 (centres undefined) ?
**Result** false (0)

**Query** What outcome does the record of this test show for Nc1ncnc2c1ncn2C1OC(CSCc2ccc(Cl)cc2)C(O)C1O (centres undefined) ?
**Result** false (0)

**Query** What outcome does the record of this test show for COc1c(O)cc2oc(-c3ccc(O)cc3)cc(=O)c2c1O [HISPIDULIN] ?
**Result** false (0)

* * *

# System: MOLT-4
# experimentSummary: NCI tumour cell line growth inhibition, 48 h
Calls of active or inactive are those of the source. No stated cut-off is given here; in the data, active = GI50 up to about 1.1 µM and inactive = higher.
Result category, one only: TRUE = active, FALSE = inactive

Some entries whose results are on file:
>>> category("C=C1c2nc3ccccc3n2C=C(c2ccc(C)cc2)N1c1ccc(OC)cc1")
"FALSE"
>>> category("CN1CCN(c2n[nH]c(=O)c3c2nnn3Cc2ccccc2)CC1")
"FALSE"

**Query** What outcome does the record of this test show for CC(=O)OCC1=C(C)C[C@H]([C@@H](COC(C)=O)C2CCC3C4C[C@H]5O[C@]56CC=CC(=O)[C@]6(C)C4CC[C@@]32C)OC1=O (stereo partly specified) ?
**Result** TRUE

* * *

# Test system: HOP-62
# experimentSummary: NCI tumour cell line growth inhibition, 48 h
The source made the active and inactive calls. No stated cut-off is given here; in the data, active = GI50 up to about 1.1 µM and inactive = higher.
Result category, one only: TRUE for active, FALSE for inactive

Some entries whose results are on file:
>>> category("CC(=O)OC1=CC2(OC(C)=O)CC(C)(C)C1C1C(=O)C=CC(=O)C12 (stereo not given)")
"FALSE"
>>> category("Nc1nc2ncn(CC(O)CO)c2c(=S)[nH]1 (stereo not given)")
"FALSE"
>>> category("Cc1ccccc1NC(=O)C(=O)C(C1OC(=O)c2ccccc21)[N+](=O)[O-] (stereo not given)")
"FALSE"
>>> category("O=c1cc(-c2cccnc2)[nH]c2cc3c(cc12)OCO3")
"FALSE"
>>> category("O=C1OCC(CN2CCC(n3c(=O)[nH]c4ccccc43)CC2)=C1c1ccccc1")
"FALSE"
>>> category("CC(=O)Nc1ccccc1Sc1ccccc1")
"FALSE"

**Query** What outcome does the record of this test show for "O=S(=O)(c1ccccc1)[C@@H]1[C@H]2C=C[C@](CS)(O2)[C@H]1S(=O)(=O)c1ccccc1" ?
**Result** FALSE

**Query** What outcome does the record of this test show for "COCOc1cc(OCOC)cc(C(=O)Oc2ccccc2)c1" ?
**Result** FALSE

**Query** What outcome does the record of this test show for "O=C1CN(c2cccc(C(F)(F)F)c2)C(=O)CN1CCN1CC(=O)N(c2cccc(C(F)(F)F)c2)CC1=O" ?
**Result** FALSE

**Query** What outcome does the record of this test show for "CCCCOc1ccc(NC(=N)Nc2ccc(Cl)cc2)cc1" ?
**Result** TRUE

* * *

Hi there, I'd appreciate the recorded GI50 for every entry that follows.
# System: MOLT-4
# experimentSummary: NCI tumour cell line growth inhibition, 48 h
Active and inactive are the calls of the source. Rule as the data show it: active = GI50 up to about 1.1 µM and inactive = higher.

Illustrative cases are given below, each with its answer.
>>> testvalue("O=[N+]([O-])c1cnccc1-n1nnc2ccccc21")
"> 48 µM (inactive)"
>>> testvalue("CC(C)NC(=O)OCc1c2c(n(C)c1COC(=O)NC(C)C)-c1cc(Cl)c(Cl)cc1CC2")
"18.7 µM (inactive)"
>>> testvalue("CCOc1cc(C2CC(c3ccc(NS(=O)(=O)c4cc([N+](=O)[O-])ccc4C)cc3)=NN2C(=O)c2ccccc2)ccc1O (stereo unspecified)")
"19.4 µM (inactive)"
>>> testvalue("CO/N=C(\\C)c1ccc(Nc2nc3ccccc3c3occc23)cc1")
"17.1 µM (inactive)"
>>> testvalue("N#CC(C#N)=C(N)/C(C#N)=C/c1cc(O)c(O)c(Br)c1")
"36.2 µM (inactive)"
>>> testvalue("CC1(Br)CC2OC3(Br)C=CC(C)(O)C2(CC1=O)C3(C)C (stereo unspecified)")
"> 94 µM (inactive)"
>>> testvalue("CC(C)(C)OC(=O)c1cccnc1/C=N/O")
"68.2 µM (inactive)"
>>> testvalue("O=C(Oc1cccc(Cl)c1)c1cc2cc(CCl)ccc2oc1=O")
"34.9 µM (inactive)"

For each of the molecules below, state GI50.
1. N#Cc1c(Cl)c2cccnc2n2c1nc1ccccc12
2. O=C1N=C(SC2OC(CO)C(O)C(O)C2O)S/C1=C\c1ccccc1 (stereo unspecified)
3. CC(C)C(=O)[C@@]1(C)SC[C@H]2CCN=C21
4. O=c1ccn(C2OC(CN(O)CCC3C(CO)OC(n4ccc(=O)[nH]c4=O)C3O)C(O)C2O)c(=O)[nH]1 (stereo unspecified)

**Result**
1: 2.04 µM (inactive); 2: > 100 µM (inactive); 3: 42.9 µM (inactive); 4: > 100 µM (inactive)
